Listed here are compounds together with their documented IC50.
# assayTarget: HLA B*0801 (Homo sapiens, UniProt P01889, A93T/A95T/D138N/E176V/E187T/K202T/Q94N/R180D/S35A/V36M/Y33D/Y91F)
# testDescription: biochemical
Where a SMILES comes first, the peptide text is derived from it.
reportedProperty: IC50

[
  {
    "compound": "CC[C@H](C)[C@H](NC(=O)[C@@H](NC(=O)[C@H](Cc1c[nH]cn1)NC(=O)[C@H](CCCNC(=N)N)NC(=O)[C@H](CC(C)C)NC(=O)[C@@H](NC(=O)[C@H](Cc1ccccc1)NC(=O)[C@H](CCSC)NC(=O)[C@@H](N)CO)[C@@H](C)O)[C@@H](C)CC)C(=O)O [3102.0752] (H-SMFTLRHII-OH)",
    "reportedProperty": "IC50",
    "obsValue": "0.0018 µM"
  },
  {
    "compound": "CC[C@H](C)[C@H](NC(=O)[C@@H]1CCCN1C(=O)[C@H](CCCNC(=N)N)NC(=O)[C@H](Cc1c[nH]cn1)NC(=O)[C@H](CCCNC(=N)N)NC(=O)[C@H](CCCCN)NC(=O)[C@H](CC(N)=O)NC(=O)[C@@H](N)CO)C(=O)NCC(=O)O [3102.0687] (H-SNKRHRPIG-OH)",
    "reportedProperty": "IC50",
    "obsValue": "0.034 µM"
  },
  {
    "compound": "CC[C@H](C)[C@H](N)C(=O)N[C@@H](CCSC)C(=O)N[C@@H](CCCNC(=N)N)C(=O)N[C@@H](CCSC)C(=O)N[C@@H](CCCNC(=N)N)C(=O)N[C@@H](Cc1ccccc1)C(=O)N[C@@H](CCCCN)C(=O)N[C@@H](CCCCN)C(=O)NCC(=O)O [3102.0777] (H-IMRMRFKKG-OH)",
    "reportedProperty": "IC50",
    "obsValue": "0.062 µM"
  }
]
